# SYSTEM_UNDER_TEST: CYP2C19 (Homo sapiens)
# Sequence (P33261 whole entry): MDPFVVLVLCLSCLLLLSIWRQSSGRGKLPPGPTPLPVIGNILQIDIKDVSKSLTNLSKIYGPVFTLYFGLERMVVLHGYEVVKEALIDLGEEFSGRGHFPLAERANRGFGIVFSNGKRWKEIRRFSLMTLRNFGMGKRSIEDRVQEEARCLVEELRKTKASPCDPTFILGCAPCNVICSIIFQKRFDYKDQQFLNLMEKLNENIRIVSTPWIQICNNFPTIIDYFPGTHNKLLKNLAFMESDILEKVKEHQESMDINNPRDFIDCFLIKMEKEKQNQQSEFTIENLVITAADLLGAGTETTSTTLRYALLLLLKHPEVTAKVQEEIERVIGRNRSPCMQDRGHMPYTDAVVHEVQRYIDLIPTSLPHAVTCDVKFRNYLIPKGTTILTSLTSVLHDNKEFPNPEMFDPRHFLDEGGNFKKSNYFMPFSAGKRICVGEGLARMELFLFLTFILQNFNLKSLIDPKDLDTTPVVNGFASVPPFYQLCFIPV
# ASSAY_METHOD_TEXT: Inhibition of recombinant human CYP2C19 expressed in baker's yeast-derived microsomes (Sacchrosomes) at 10 uM using 3-cyano-7-ethoxycoumarin substrate by EROD assay relative to control
# Format: ADME
# APPLIED_CONDITIONS: probe 3-cyano-7-ethoxycoumarin
Each entry below carries its reported inhibition at 10 µM.
Write the answer as a number in %, unit excluded.

Consider the following illustrative entries.
>  <COMPOUND>
COc1ccc(-c2cc(=O)c3c(O)c(OC)c(OC)cc3o2)cc1OC

>  <ASSAY_METRIC>
inhibition at 10 µM

>  <MEASURED_VALUE>
5

$$$$
>  <COMPOUND>
COc1c2ccoc2c(OC)c2oc(=O)ccc12 [ISOPIMPINELLIN]

>  <ASSAY_METRIC>
inhibition at 10 µM

>  <MEASURED_VALUE>
0

$$$$
>  <COMPOUND>
COc1c(C(=O)CC(=O)c2ccccc2)ccc2occc12

>  <ASSAY_METRIC>
inhibition at 10 µM

>  <MEASURED_VALUE>
3

$$$$
>  <COMPOUND>
COc1ccc2c(c1OC)C(OC)N(C)c1c-2ccc2cc3c(cc12)OCO3 (stereo not given)

>  <ASSAY_METRIC>
inhibition at 10 µM

>  <MEASURED_VALUE>
3

$$$$

# ---- query compound ----
inhibition at 10 µM lookup needed for COc1c2occc2c(OC)c2c(=O)cc(C)oc12 [KHELLIN] , thanks.
8

###

# SYSTEM_UNDER_TEST: Cytochrome P450 1A2 (Homo sapiens, UniProt P05177)
# Sequence (P05177 whole entry): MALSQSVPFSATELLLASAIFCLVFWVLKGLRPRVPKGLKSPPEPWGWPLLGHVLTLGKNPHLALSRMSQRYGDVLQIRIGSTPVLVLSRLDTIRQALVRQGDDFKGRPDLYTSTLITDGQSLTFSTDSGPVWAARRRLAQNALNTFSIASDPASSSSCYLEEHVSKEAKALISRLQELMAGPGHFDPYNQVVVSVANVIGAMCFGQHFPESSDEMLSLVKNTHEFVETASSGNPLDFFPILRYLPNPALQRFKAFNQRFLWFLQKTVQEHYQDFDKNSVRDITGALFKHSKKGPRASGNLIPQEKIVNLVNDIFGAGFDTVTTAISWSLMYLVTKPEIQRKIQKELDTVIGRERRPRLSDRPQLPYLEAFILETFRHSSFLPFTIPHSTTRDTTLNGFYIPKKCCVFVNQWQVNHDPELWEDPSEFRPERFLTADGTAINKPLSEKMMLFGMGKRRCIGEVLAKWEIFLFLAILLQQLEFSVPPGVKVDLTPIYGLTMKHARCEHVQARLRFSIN
# ASSAY_METHOD_TEXT: Inhibition of human recombinant CYP1A2 expressed in HEK293 cells using 3-cyano-7-ethoxycoumarin substrate preincubated for 30 mins followed by substrate addition and measured after 60 mins by fluorescence assay relative to control
Catalogue of log10(IC50) readings, one per entry.
Kindly note that the scale is log10 and the underlying IC50 is in µM.

Given the compound COc1c2ccoc2c(OCC=C(C)C)c2oc(=O)ccc12 , what is its reported log10(IC50)?
-0.38

Request: COc1c2ccoc2c(OC)c2oc(=O)ccc12
-1.40

And Nc1nccc(-c2c[nH]c3ccc(Br)cc23)n1 ?
0.94

Same read-out for COc1c2occc2c(OC)c2c(=O)cc(C)oc12 ?
-1.40

One more compound: COc1ccc2c(c1OC)C(OC)N(C)c1c-2ccc2cc3c(cc12)OCO3 (stereo not given)
0.95

Check COc1ccc(-c2cc(=O)c3c(O)c(OC)c(OC)cc3o2)cc1OC too.
-0.05

// repeat for COc1c(C(=O)CC(=O)c2ccccc2)ccc2occc12 and report
0.50

###

# SYSTEM_UNDER_TEST: CYP1A1 (Homo sapiens, UniProt P04798)
# Sequence (P04798 whole entry): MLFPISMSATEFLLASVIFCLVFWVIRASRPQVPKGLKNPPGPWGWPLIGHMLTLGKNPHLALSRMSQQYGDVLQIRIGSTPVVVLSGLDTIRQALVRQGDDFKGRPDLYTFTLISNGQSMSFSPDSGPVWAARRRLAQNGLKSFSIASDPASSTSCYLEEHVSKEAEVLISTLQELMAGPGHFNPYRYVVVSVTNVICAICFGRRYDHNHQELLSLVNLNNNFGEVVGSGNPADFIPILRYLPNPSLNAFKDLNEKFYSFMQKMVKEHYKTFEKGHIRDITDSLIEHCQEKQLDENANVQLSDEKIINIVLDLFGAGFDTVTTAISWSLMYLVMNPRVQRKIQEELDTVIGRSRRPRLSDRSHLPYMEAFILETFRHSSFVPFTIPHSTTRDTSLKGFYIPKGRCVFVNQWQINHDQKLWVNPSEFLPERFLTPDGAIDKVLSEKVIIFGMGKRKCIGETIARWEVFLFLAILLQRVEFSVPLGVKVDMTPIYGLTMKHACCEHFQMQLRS
# ASSAY_METHOD_TEXT: Inhibition of recombinant human CYP1A1 expressed in baker's yeast-derived microsomes (Sacchrosomes) at 10 uM using 7-ethoxyresorufin substrate by EROD assay relative to control
# APPLIED_CONDITIONS: probe 7-ethoxyresorufin
ASSAY_METRIC: inhibition at 10 µM (%)
// units = %; emit number, no label

The examples below pair each entry with its known result.
>  <COMPOUND>
COc1c2ccoc2c(OC)c2oc(=O)ccc12 [ISOPIMPINELLIN]

>  <RESULT_UNIT>
%

>  <inhibition at 10 µM>
71

$$$$
>  <COMPOUND>
COc1ccc2cc3[n+](cc2c1OC)CCc1cc2c(cc1-3)OCO2 [BERBERINE CHLORIDE]

>  <RESULT_UNIT>
%

>  <inhibition at 10 µM>
48

$$$$
>  <COMPOUND>
O=c1ccc2ccc3occc3c2o1 [ANGELICIN]

>  <RESULT_UNIT>
%

>  <inhibition at 10 µM>
80

$$$$
>  <COMPOUND>
CC(C)(O)C(O)COc1c2occc2cc2ccc(=O)oc12 (stereo not drawn)

>  <RESULT_UNIT>
%

>  <inhibition at 10 µM>
72

$$$$
>  <COMPOUND>
COc1ccc(-c2cc(=O)c3c(O)c(OC)c(OC)cc3o2)cc1OC

>  <RESULT_UNIT>
%

>  <inhibition at 10 µM>
80

$$$$
>  <COMPOUND>
O=c1ccc2cc3ccoc3cc2o1 [PSORALEN]

>  <RESULT_UNIT>
%

>  <inhibition at 10 µM>
69

$$$$
>  <COMPOUND>
CC1(C)O[C@H]1COc1c2ccoc2cc2oc(=O)ccc12 [OXYPEUCEDANIN]

>  <RESULT_UNIT>
%

>  <inhibition at 10 µM>
56

$$$$
>  <COMPOUND>
O=c1cc(-c2ccc(O)cc2)oc2c([C@@H]3O[C@H](CO)[C@@H](O)[C@H](O)[C@H]3O)c(O)cc(O)c12 [VITEXIN]

>  <RESULT_UNIT>
%

>  <inhibition at 10 µM>
42

$$$$

Requested read-out: inhibition at 10 µM. Entry: CC1=C(CO)C(=O)O[C@@H]([C@@H](C)[C@H]2CC[C@H]3[C@@H]4C[C@H]5O[C@]56[C@@H](O)C=CC(=O)[C@]6(C)[C@H]4CC[C@]23C)C1 [WITHAFERIN A]
50

// next record Cc1c(O)c2c(c(C(=O)/C=C/c3ccccc3)c1O)OC(C)(C)C=C2
52

Could you do the same for C=CCOc1cc(OCC=C)c2ccc(=O)oc2c1 , please?
69

Can you check COc1ccc2ccc(=O)oc2c1CC=C(C)C [OSTHOLE] next?
34

Same question, COc1ccc2c(c1OC)C(OC)N(C)c1c-2ccc2cc3c(cc12)OCO3 (stereo not drawn) this time
90

###

Catalogue of molecules with associated Ki
# SYSTEM_UNDER_TEST: Cytochrome P450 1A2 (Homo sapiens, UniProt P05177)
# ASSAY_METHOD_TEXT: Inhibition of human recombinant CYP1A2 expressed in HEK293 cells using 3-cyano-7-ethoxycoumarin substrate preincubated for 30 mins followed by substrate addition and measured after 60 mins by fluorescence assay relative to control
Give a bare numeral; the unit nM is implied.

Return reported Ki; argument: COc1c2ccoc2c(OCC=C(C)C)c2oc(=O)ccc12
380

And for COc1c2ccoc2c(OC)c2oc(=O)ccc12 ?
28

Please answer likewise for Nc1nccc(-c2c[nH]c3ccc(Br)cc23)n1
8780

Okay, and O=C1C=CC(=O)c2c(O)ccc(O)c21 ?
2220

Entry COc1ccc(-c2cc(=O)c3c(O)c(OC)c(OC)cc3o2)cc1OC please
780

What do you get for CC1=CC(=O)c2c(O)cccc2C1=O ?
2360

Also check COc1c2ccoc2cc2oc(=O)ccc12
60

Another: COc1c(C(=O)CC(=O)c2ccccc2)ccc2occc12
3860

Moving on to COc1ccc2c(c1OC)C(OC)N(C)c1c-2ccc2cc3c(cc12)OCO3 (stereo not given)
9160

Another: COc1c2occc2c(OC)c2c(=O)cc(C)oc12
31

###

# SYSTEM_UNDER_TEST: Cytochrome P450 1A1 (Homo sapiens)
# ASSAY_METHOD_TEXT: Inhibition of human recombinant CYP1A1 expressed in HEK293 cells using 7-ethoxyresorufin substrate preincubated for 30 mins followed by substrate addition and measured after 60 mins by fluorescence assay relative to control
pIC50: −log10 of the molar value.
Decide using pIC50: a value greater than or equal to 6 is Y, a smaller one is N.

>  <MOLECULE>
COc1c2ccoc2c(OC)c2oc(=O)ccc12

>  <CATEGORY_LABEL>
Y

$$$$
>  <MOLECULE>
COc1c2ccoc2c(OCC=C(C)C)c2oc(=O)ccc12

>  <CATEGORY_LABEL>
Y

$$$$
>  <MOLECULE>
CC1=CC(=O)c2c(O)cccc2C1=O

>  <CATEGORY_LABEL>
N

$$$$
>  <MOLECULE>
COc1ccc2c(c1OC)C(OC)N(C)c1c-2ccc2cc3c(cc12)OCO3 (stereo unspecified)

>  <CATEGORY_LABEL>
N

$$$$
>  <MOLECULE>
O=C1C=CC(=O)c2c(O)ccc(O)c21

>  <CATEGORY_LABEL>
N

$$$$

Has COc1c(C(=O)CC(=O)c2ccccc2)ccc2occc12 a recorded pIC50 greater than or equal to 6?
N
